Biological target: human mineralocorticoid receptor (hMR), GAL4-hMR receptor (Homo sapiens)
Sequence (P08235 726-964 limits assumed): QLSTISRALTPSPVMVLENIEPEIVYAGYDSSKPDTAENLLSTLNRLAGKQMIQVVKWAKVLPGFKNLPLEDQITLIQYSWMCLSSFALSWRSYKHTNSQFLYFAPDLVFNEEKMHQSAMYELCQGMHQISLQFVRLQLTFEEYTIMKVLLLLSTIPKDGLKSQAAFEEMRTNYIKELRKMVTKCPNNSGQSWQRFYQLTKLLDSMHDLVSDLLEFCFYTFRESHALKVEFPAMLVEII
Assay: GAL4-hMR-LBD luciferase reporter assay in HEK293 cells with 1 nM aldosterone (mineralocorticoid receptor antagonistic action)
Conditions: concentration which shows Imax/2; HEK293, GAL4-hMR-LBD, luciferase, with 1 nM aldosterone; read-out: ICmax50
OUTCOME_MEASURE: pIC50
API: returns pIC50 as number; meaning -log10 of concentration in mol/L.

Report measured pIC50; entry is Cc1c(C(=O)Nc2ccc(S(C)(=O)=O)cc2)cn([C@H](C)[C@H](C)O)c1-c1ccc(Cl)cc1C(F)(F)F (single isomer, unassigned) [Example 3-isomer A]
8.34

Report measured pIC50; entry is Cc1c(C(=O)Nc2ccc(S(C)(=O)=O)cc2)cn([C@H](C)[C@H](C)O)c1-c1ccc(Cl)cc1C(F)(F)F (atropisomer, axis not shown) [Example 3]
8.17

Report measured pIC50; entry is Cc1c(C(=O)Nc2ccc(S(C)(=O)=O)cc2)cn([C@H](C)[C@H](C)O)c1-c1ccc(F)cc1Cl [Example 4]
8.00

Report measured pIC50; entry is Cc1c(C(=O)Nc2ccc(S(C)(=O)=O)cc2)cn([C@H](C)[C@H](C)O)c1-c1ccc(F)cc1Cl (single isomer, unassigned) [Example 4-isomer A]
7.96

Report measured pIC50; entry is Cc1c(C(=O)Nc2ccc(S(C)(=O)=O)cc2)cn(CCO)c1-c1ccccc1C(F)(F)F (racemic) [Comparative compound, reference compound]
8.28

Report measured pIC50; entry is Cc1c(C(=O)Nc2ccc(S(C)(=O)=O)cc2)cn([C@H](C)[C@H](C)O)c1-c1ccc(F)cc1C(F)(F)F [Example 2]
8.21

Report measured pIC50; entry is Cc1c(C(=O)Nc2ccc(S(C)(=O)=O)cc2)cn([C@H](C)[C@H](C)O)c1-c1ccc(F)cc1C(F)(F)F (single isomer, unassigned) [Example 2-isomer A]
8.42

Report measured pIC50; entry is Cc1c(C(=O)Nc2ccc(S(C)(=O)=O)cc2)cn([C@H](C)[C@H](C)O)c1-c1ccccc1C(F)(F)F (single isomer, unassigned) [Example 1-isomer A]
8.54

Report measured pIC50; entry is Cc1c(C(=O)Nc2ccc(S(C)(=O)=O)cc2)cn([C@H](C)[C@H](C)O)c1-c1ccccc1C(F)(F)F [Example 1]
8.18

###

Molecular target: human mineralocorticoid receptor (hMR), GAL4-hMR receptor (Homo sapiens, UniProt P08235)
Construct: expressed in transfected cells; host or cells: HEK293
Assay: GAL4-hMR-LBD luciferase reporter assay in HEK293 cells with 1 nM aldosterone (mineralocorticoid receptor antagonistic action)
Assay type: cell-based
Conditions: maximum value; DMSO control = 0%, 1 nM aldosterone control = 100%; HEK293 luciferase reporter
Description: A plasmid pM-hMR-LBD expressing GAL4-hMR receptor, which has a ligand binding domain (LBD, corresponds to approximately 308 amino acids at the carboxy terminus) of human mineralocorticoid receptor (hMR, NM_000901) bonded to a DNA binding domain of yeast transcription factor GAL4 (corresponding to 147 amino acids at the amino terminus), was prepared. […]
Please respond with reported Imax for every item in the list.
Note: a bare number is incomplete; add the unit.

Report measured Imax; entry is Cc1c(C(=O)Nc2ccc(S(C)(=O)=O)cc2)cn([C@H](C)[C@H](C)O)c1-c1ccc(Cl)cc1C(F)(F)F (single isomer, unassigned) [Example 3-isomer A]
108%

Report measured Imax; entry is Cc1c(C(=O)Nc2ccc(S(C)(=O)=O)cc2)cn([C@H](C)[C@H](C)O)c1-c1ccc(F)cc1C(F)(F)F [Example 2]
88%

Report measured Imax; entry is Cc1c(C(=O)Nc2ccc(S(C)(=O)=O)cc2)cn([C@H](C)[C@H](C)O)c1-c1ccc(F)cc1Cl (single isomer, unassigned) [Example 4-isomer A]
103%

Values from patent US8487117B2
